Values were extracted from the supplement of paper PMC9938120.

# Test system: FMOC03 (patient-derived mucinous ovarian cancer cells)
# Assay Details: drug sensitivity score (DSS3, normalised partial AUC of % inhibition dose-response) (DSS (score)); higher = more sensitive (stronger inhibition of viability); extreme values may be limits of the assay
# Settings: 72 h; library: FO5A; assay format: 2D, 384-well, CellTiter-Glo
Label class 1 when drug sensitivity score is at or above 2; otherwise label class 0.

QUERY: Does Oc1nc(-c2ccc(C(F)(F)F)cc2)nc2c1CSCC2 [XAV-939] have a reported drug sensitivity score of at least 2?
RESULT: class 0

QUERY: Is drug sensitivity score for NC(=S)N/N=C/c1ncccc1N [Triapine] at or above 2?
RESULT: class 1

QUERY: Please check the record C[C@H]1C[C@@H]2[C@H]([C@@H](O)C[C@@]3(C)[C@H]2CC[C@]3(O)C(=O)CO)[C@@]2(C)C=CC(=O)C=C12 [Methylprednisolone] and state if its drug sensitivity score is at or above 2.
RESULT: class 0

QUERY: Threshold query (drug sensitivity score >= 2) on Nc1nc2cc(-c3ccc4ncc(C(=O)N5CCOCC5)n4c3)ccc2o1 [Serabelisib]
RESULT: class 1

QUERY: Does `CNC(=O)c1ccc(C)c(-n2c(C)cc(OCc3ccc(F)cc3F)c(Br)c2=O)c1` have a reported drug sensitivity score of at least 2?
RESULT: class 0

QUERY: I'd appreciate it if you could say whether CC1(C)NC(=O)N(c2ccc([N+](=O)[O-])c(C(F)(F)F)c2)C1=O [Nilutamide] has drug sensitivity score at least equal to 2.
RESULT: class 0

QUERY: Exam item: decide whether the reported drug sensitivity score for O=C1CN2Cc3c(ccc(Cl)c3Cl)N=C2N1 [Anagrelide] is at least 2.
RESULT: class 0

QUERY: Does drug sensitivity score meet or surpass 2 for Cc1ncc(-c2ccnc(Nc3ccc(S(C)(=O)=O)cc3)n2)n1C(C)C [AZD-5438] ?
RESULT: class 1

QUERY: Quick check, drug sensitivity score >= 2? CCCCCCCCc1ccc(CCC(N)(CO)CO)cc1 [Fingolimod]
RESULT: class 1
